Reported values of pIC50 for individual entries
- Tested on: HCV proteins in Rep5.1 cells (replicon cell line)
- assayText: Inhibitory activity of HCV: cell-based ELISA in replicon cell line Rep5.1 (decrease of HCV proteins)
- Set-up: species or system hepatitis C virus
- conditionInfo: Hepatitis C virus, 72 h, Rep5.1 cells, 72 hours with drug, decrease of HCV proteins measured by HCV antibody; Table 1; read-out: Level (IC50 values classified)
pIC50: −log10 of the molar value.

Solved cases (8 shown):
# compound, testResult
records = [
    ("CC1=C(C(=O)OCCc2sccc2C)CNC(=S)N1 [Compound 257]", "> 6.00"),
    ("CC1=C(C(=O)OCCc2ccsc2)C(C(F)F)NC(=S)N1 (centres unmarked) [80′]", "4.70 to 5.00"),
    ("CC1=C(C(=O)OCCc2ccc(Cl)c(C(F)(F)F)c2)C(CO)NC(=S)N1 (centres unmarked) [67″]", "> 6.00"),
    ("CSc1ccc(CCOC(=O)C2=C(C)NC(=S)NC2CO)cc1 (centres unmarked) [45″]", "5.00 to 6.00"),
    ("O=C(OCc1ccccc1)C1=C(C(=O)OCc2ccccc2)NC(=S)NC1 [Compound 87]", "< 4.70"),
    ("COC(=O)CCCCCCCCCOC(=O)C1=C(C)NC(=S)NC1 [Compound 198]", "5.00 to 6.00"),
    ("COc1ccc(COc2ccc(COC(=O)C3=C(C)NC(=S)NC3)cc2)cc1 [Compound 227]", "> 6.00"),
    ("CC1=C(C(=O)OCc2ccn(S(=O)(=O)c3ccc(C)cc3)c2)CNC(=S)N1 [Compound 230]", "> 6.00"),
]

Given CC1=C(C(=O)OCCCc2ccsc2)C(C(C)O)NC(=S)N1 (centres unmarked) [15″] , state its recorded pIC50.
< 4.70

CC1=C(C(=O)OCCCCSc2nc3ccccc3s2)C(CF)NC(=S)N1 (centres unmarked) [55′] ?
5.00 to 6.00

O=C(OCc1ccccc1)C1=C(CCc2ccccc2)NC(=S)NC1 [Compound 19] ?
> 6.00
